From: ChEMBL document CHEMBL3885861

Species: Rattus norvegicus
Experiment: Open TG-GATES - Regimen: Daily Repeat
Type: toxicity, organism-based, Sprague-Dawley
Set-up: regimen Daily Repeat, gender Male, age 6 weeks
Settings: in vivo, po, 0 mg/kg, 72 h, tissue Blood, route gavage, dose level Control, time 3 day

Item Smiles	Plat / x10_4/uL
CO[C@H]1/C=C/O[C@@]2(C)Oc3c(C)c(O)c4c(O)c(c(/C=N/N5CCN(C)CC5)c(O)c4c3C2=O)NC(=O)/C(C)=C\C=C\[C@H](C)[C@H](O)[C@@H](C)[C@@H](O)[C@@H](C)[C@H](OC(C)=O)[C@@H]1C	126
COc1ccc(Cc2nccc3cc(OC)c(OC)cc23)cc1OC	114.4
O=C(O)c1cc(/N=N/c2ccc(S(=O)(=O)Nc3ccccn3)cc2)ccc1O	125.9

---

Property: Neu; scope: individual compounds
Species: Rattus norvegicus
Test: Open TG-GATES - Regimen: Single
Format: toxicity, organism-based, Sprague-Dawley
Parameters: regimen Single, gender Male, age 6 weeks
Details: in vivo, po, 0 mg/kg, 3 h, tissue Blood, route gavage, dose level Control
Readout: Neu (%)

>>> print(df.to_string())
                                   compound  measurement_units  test_value
0         NC(=O)N/N=C/c1ccc([N+](=O)[O-])o1                  %          17
1          C[C@H](CS)C(=O)N1CCC[C@H]1C(=O)O                  %          14
2  CSc1ccc2c(c1)N(CCC1CCCCN1C)c1ccccc1S2 (stereo not given)                  %          10
3            CN(C)CCC=C1c2ccccc2CCc2ccccc21                  %        17.2
4                  Clc1ccccc1CN1CCc2sccc2C1                  %        21.8

---

Quick reference for CRE among some compounds
Species: Rattus norvegicus
Experiment: Open TG-GATES - Regimen: Single
Assay type: toxicity, organism-based, Sprague-Dawley
Parameters: regimen Single, gender Male, age 6 weeks
Settings: in vivo, po, 0 mg/kg, 24 h, tissue Plasma, route gavage, dose level Control
Readout: CRE (mg/dL)

In [3]: df
Out[3]:
                                   compound  test_value
0           CC(=O)Oc1ccccc1C(=O)O [ASPIRIN]         0.4
1  NC(=O)N1c2ccccc2C=Cc2ccccc21 [CARBAMAZEPINE]         0.4
2  O=C(O)c1cc(/N=N/c2ccc(S(=O)(=O)Nc3ccccn3)cc2)ccc1O [SULFASALAZINE]         0.4

---

Species: Rattus norvegicus
Assay: Open TG-GATES - Regimen: Daily Repeat
Format: toxicity, organism-based, Sprague-Dawley
Parameters: regimen Daily Repeat, gender Male, age 6 weeks
Conditions: in vivo, po, 0 mg/kg, […], tissue Plasma, route gavage, dose level Control, time 28 day
Readout: K (meq/L)

In [3]: df
Out[3]:
                                   compound  readout  test_value
0           CCCC(CCC)C(=O)O [VALPROIC ACID]        K         3.9
1  Cn1c(=O)c2[nH]cnc2n(C)c1=O.O [THEOPHYLLINE]        K         4.1
2  COc1ccc2c(c1)c(CC(=O)O)c(C)n2C(=O)c1ccc(Cl)cc1 [INDOMETHACIN]        K         4.1
